Each entry below carries its reported activity (%).
target: human derived GPR40 (Homo sapiens); construct: expressed in transfected cells; test: Agonist action on human derived GPR40: change of intracellular calcium concentration in CHO cells (FLIPRtetra); format: cell-based; details: agonist activity of compound at 1 μM, relative to 10 μM γ linolenic acid as 100%, wave peak height; CHO cells stably expressing human GPR40
recordedMetric: activity (%)

compound | recordedMetric | unit | endpointValue
Cc1cc(OC[C@@H]2CCC(=O)N2)cc(C)c1-c1cccc2c1OC[C@H]2Nc1ccc2c(c1)OC[C@H]2CC(=O)O [Example 8] | activity (%) | % | 131
Cc1c(CNc2ccc3c(c2)OC[C@H]3CC(=O)O)cccc1-n1c(C)nc2c(C)cccc21 [Example 153] | activity (%) | % | 111
O=C([O-])C[C@@H]1COc2cc(N[C@@H]3COc4c3cccc4N3CCOc4ccccc43)ccc21.[Na+] [Example 86] | activity (%) | % | 128

====

molecular target: human derived GPR40 (Homo sapiens, UniProt O14842); construct: expressed in transfected cells; test: Agonist action on human derived GPR40: change of intracellular calcium concentration in CHO cells (FLIPRtetra); type: cell-based; conditions: agonist activity of compound at 1 μM, relative to 10 μM γ linolenic acid as 100%, wave peak height; CHO cells stably expressing human GPR40
Sequence (O14842 whole entry): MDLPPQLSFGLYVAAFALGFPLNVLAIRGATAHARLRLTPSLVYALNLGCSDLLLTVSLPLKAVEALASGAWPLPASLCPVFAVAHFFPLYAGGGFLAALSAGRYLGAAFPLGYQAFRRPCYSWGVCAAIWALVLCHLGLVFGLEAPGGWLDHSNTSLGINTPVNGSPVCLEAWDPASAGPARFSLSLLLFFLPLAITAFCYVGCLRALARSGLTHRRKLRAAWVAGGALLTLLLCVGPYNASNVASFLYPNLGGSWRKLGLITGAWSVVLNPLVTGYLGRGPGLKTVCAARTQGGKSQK

compound | unit | activity (%)
CCOc1nc2c(OCC(F)(F)F)cccc2n1-c1cccc(CNc2ccc3c(c2)OC[C@H]3CC(=O)O)c1C | % | 125
Cc1cc(-c2cccc(CNc3ccc4c(c3)OC[C@H]4CC(=O)O)c2F)c(C)s1 | % | 129
Cc1nc(OC(F)F)nc(C)c1-c1cccc(CNc2ccc3c(c2)OC[C@H]3CC(=O)O)c1C | % | 132
Cc1nn(C(F)F)c(C)c1-c1cccc2c1OCC2Nc1ccc2c(c1)OC[C@H]2CC(=O)O (some centres unmarked) | % | 111
Cc1ccc(CNc2ccc3c(c2)OC[C@H]3CC(=O)O)c(C)c1-c1ccc2nc(C(F)(F)F)cn2c1 | % | 125
COc1ccc(-c2c(C(F)(F)F)ccc(CNc3ccc4c(c3)OC[C@H]4CC(=O)O)c2C)cn1 | % | 121
CCOc1nc2ccc(F)cc2n1-c1cccc2c1CCC2Nc1ccc2c(c1)OC[C@H]2CC(=O)[O-].[Na+] (some centres unmarked) | % | 105
Cc1oc2cccnc2c1-c1cccc(CNc2ccc3c(c2)OC[C@H]3CC(=O)O)c1C | % | 126
CCc1nc2ccc(F)c(F)c2n1-c1cccc2c1OC[C@H]2Nc1ccc2c(c1)OC[C@H]2CC(=O)[O-].[Na+] | % | 127
Cc1nc2ccc(OCC(F)(F)F)cc2n1-c1cccc2c1OC[C@H]2Nc1ccc2c(c1)OC[C@H]2CC(=O)[O-].[Na+] | % | 123
CCN(c1ccc(C#N)cc1F)c1cccc2c1OC[C@H]2Nc1ccc2c(c1)OC[C@H]2CC(=O)O | % | 129
CCc1nc2ccc(Cl)cc2n1-c1cccc(CNc2ccc3c(c2)OC[C@H]3CC(=O)[O-])c1C.[Na+] | % | 121
Cc1cc(OC2CCS(=O)(=O)CC2)cc(C)c1-c1cccc2c1OC[C@H]2Nc1ccc2c(c1)OC[C@H]2CC(=O)O | % | 128
Cc1cc(-c2cccc3c2OC[C@H]3Nc2ccc3c(c2)OC[C@H]3CC(=O)O)c(C)s1 | % | 128
CCOc1nc2c(F)cc(F)cc2n1-c1cccc2c1OC[C@H]2Nc1ccc2c(c1)OC[C@H]2CC(=O)[O-].[Na+] | % | 117
Cc1nc(N2CCCC2)nc(C)c1-c1cccc2c1OC[C@H]2Nc1ccc2c(c1)OC[C@H]2CC(=O)O | % | 126
Cc1nc(N2CCOCC2)nc(C)c1-c1cccc2c1OC[C@H]2Nc1ccc2c(c1)OC[C@H]2CC(=O)O | % | 132
Cc1oc2ncccc2c1-c1cccc(CNc2ccc3c(c2)OC[C@H]3CC(=O)O)c1C | % | 111
Cc1c(CNc2ccc3c(c2)OC[C@H]3CC(=O)O)cccc1-n1c(C)nc2cc(C(F)(F)F)ccc21 | % | 129
CCOc1nc2ccc(F)c(F)c2n1-c1cccc2c1OC[C@H]2Nc1ccc2c(c1)OC[C@H]2CC(=O)[O-].[Na+] | % | 109
CCc1nc2ccccc2n1-c1cccc2c1OC[C@H]2Nc1ccc2c(c1)OC[C@H]2CC(=O)[O-].[Na+] | % | 129
Cc1nc2ccccn2c1-c1cccc(CNc2ccc3c(c2)OC[C@H]3CC(=O)O)c1C | % | 124
CCCN(c1cc(C)ccn1)c1cccc2c1OC[C@H]2Nc1ccc2c(c1)OC[C@H]2CC(=O)O | % | 129
Cc1nn(C(F)F)c(C)c1-c1cccc(CNc2ccc3c(c2)OC[C@H]3CC(=O)O)c1C | % | 122
Cc1cc(OCCCS(C)(=O)=O)cc(C)c1-c1cccc2c1OC[C@H]2Nc1ccc2c(c1)OC[C@H]2CC(=O)O | % | 124
COc1ccc2c(c1)nc(C1CC1)n2-c1cccc(CNc2ccc3c(c2)OC[C@H]3CC(=O)O)c1C | % | 90
Cc1nc(N2CCOCC2)nc(C)c1-c1cccc(CNc2ccc3c(c2)OC[C@H]3CC(=O)O)c1C | % | 121
CCOc1nc2ccc(F)cc2n1-c1cccc2c1OC[C@H]2Nc1ccc2c(c1)OC[C@H]2CC(=O)[O-].[Na+] | % | 129
CCCN(c1ccc(F)cn1)c1cccc(CNc2ccc3c(c2)OC[C@H]3CC(=O)O)c1C | % | 121
